# target: T1, cynomolgus monkey PVRIG (Novoprotein, Cat NO. C09B) (cynomolgus monkey, UniProt A0A2K5WVV8 41-171)
# T1 construct: also called cynomolgus monkey PVRIG protein
# T1 sequence: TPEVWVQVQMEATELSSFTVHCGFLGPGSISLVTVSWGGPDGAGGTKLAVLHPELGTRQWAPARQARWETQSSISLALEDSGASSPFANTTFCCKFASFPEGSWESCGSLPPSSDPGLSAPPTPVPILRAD
# assayRemarks: ELISA, antigen coated
pEC50: −log10 of the molar value.

| binder | pEC50 |
| --- | --- |
| PVRIG-A50-H1e (Fc fusion, humanized variant of PVRIG-A50; also called VH1e; not shown: constant part not restated for the humanized forms; parents are VHH-hinge-CH2-CH3 of human IgG1; detected by anti-human) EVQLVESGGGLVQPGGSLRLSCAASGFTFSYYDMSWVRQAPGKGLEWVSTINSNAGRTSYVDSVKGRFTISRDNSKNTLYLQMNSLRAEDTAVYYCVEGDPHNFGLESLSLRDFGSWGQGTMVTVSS | 9.86 |
| PVRIG-A50-H1d (Fc fusion, humanized variant of PVRIG-A50; also called A50.VH1d; not shown: constant part not restated for the humanized forms; parents are VHH-hinge-CH2-CH3 of human IgG1; detected by anti-human) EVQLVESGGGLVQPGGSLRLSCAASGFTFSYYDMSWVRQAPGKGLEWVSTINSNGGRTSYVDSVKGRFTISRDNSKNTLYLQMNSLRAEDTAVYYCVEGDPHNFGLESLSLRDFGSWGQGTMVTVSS | 9.96 |
| PVRIG-A105-H2 (Fc fusion, humanized variant of PVRIG-A105; also called A105 VH2; not shown: constant part not restated for the humanized forms; parents are VHH-hinge-CH2-CH3 of human IgG1; detected by anti-human) EVQLVESGGGLVQPGGSLRLSCAASGRTFDRHTMTWFRQAPGKEREFVATASRIPGDTYYVDSVKGRFTISRDNAKNSLYLQMNSLRAEDTAVYYCAATSAYCSEVDCYEKGSWYDNWGQGTMVTVSS | 10.46 |
| PVRIG-A50-H1b (Fc fusion, humanized variant of PVRIG-A50; also called A50.VH1b; not shown: constant part not restated for the humanized forms; parents are VHH-hinge-CH2-CH3 of human IgG1; detected by anti-human) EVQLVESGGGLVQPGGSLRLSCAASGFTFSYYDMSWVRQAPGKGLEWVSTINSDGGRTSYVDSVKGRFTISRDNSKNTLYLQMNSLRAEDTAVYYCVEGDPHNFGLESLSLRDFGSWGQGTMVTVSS | 9.79 |
